experiment description: melting temperature; fluorescence melt of hairpins on a sequencing array, two-state fit, raised by 9.35 °C to match UV melts
particulars: sodium 0.088 M
readout: Tm (°C)
I only need the number, in °C, no unit after it.

{"seq string": "GGACTAGGAAACTGGTCC ((((.((....)).))))", "Tm [°C]": 50.9}
{"seq string": "GATCTGCAACCAGATC ((((((....))))))", "Tm [°C]": 46.2}
{"seq string": "GATCTTCGTCAAGATC ((((((....))))))", "Tm [°C]": 40.7}
{"seq string": "GCGATGGGAAACTGTCGC ((((..(....)..))))", "Tm [°C]": 49.2}

// lookup Tm for ATCCCGAAAGGGAT (((((....)))))
60.9
